melting point for assorted molecules

Prompt: Can you look up the measured melting point of COc1ccc(CC(=O)Nc2cc3c(cc2[N+](=O)[O-])OC(C)(C)[C@H](O)[C@H]3OCc2ccccc2)cc1 [Synthesis example 8] for me?
Completion: 117.8 to 119.1 °C

Others:
Prompt: Sample COc1ccc(CC(=O)Nc2cc3c(cc2[N+](=O)[O-])OC(C)(C)[C@H](O)[C@H]3OCCc2ccccc2)cc1 [Synthesis example 6] — what was its melting point?
Completion: 125.2 to 125.5 °C

Prompt: Same question for CCCO[C@H]1c2cc(NC(=O)Cc3ccc(OC)cc3)c([N+](=O)[O-])cc2OC(C)(C)[C@@H]1O (relative stereo) [Synthesis example 4] please.
Completion: 115 to 116 °C

Prompt: Queued: COc1ccc(CC(=O)Nc2cc3c(cc2[N+](=O)[O-])OC(C)(C)[C@H](O)[C@H]3Oc2ccccc2)cc1 (relative stereo) [Synthesis example 7]
Completion: 178 to 178.6 °C

Data origin, for the record: patent US6555574B1
